Test system: NCI-H460
Test: relative viability (nuclei count vs DMSO), 5 days (fraction); higher = more cells survive
Settings: first compound 0.01581 µM
value-type: relative viability
Form field (numeric): enter value without unit.

Prompt line: Quick check: relative viability of Nc1ccn([C@@H]2O[C@H](CO)[C@@H](O)[C@@H]2O)c(=O)n1 [Cytarabine] + C[C@]1(O)C[C@@H](c2nc(-c3ccc4ccc(-c5ccccc5)nc4c3)c3c(N)nccn32)C1 [Linsitinib] (partner 1 µM) ?
Response line: 0.514

Prompt line: Quick check: relative viability of Nc1ccn([C@@H]2O[C@H](CO)[C@@H](O)[C@@H]2O)c(=O)n1 [Cytarabine] + Cc1nc(NC(=O)N2CCC[C@H]2C(N)=O)sc1-c1ccnc(C(C)(C)C(F)(F)F)c1 [Alpelisib] (partner 2 µM) ?
Response line: 0.252

Prompt line: Quick check: relative viability of Nc1ccn([C@@H]2O[C@H](CO)[C@@H](O)[C@@H]2O)c(=O)n1 [Cytarabine] + CCNC(=O)c1noc(-c2cc(C(C)C)c(O)cc2O)c1-c1ccc(CN2CCOCC2)cc1 [Luminespib] (partner 0.01 µM) ?
Response line: 0.0332

Others:
Prompt line: Quick check: relative viability of COc1cc2nccc(Oc3ccc(NC(=O)Nc4cc(C)on4)c(Cl)c3)c2cc1OC [Tivozanib] + COc1cccc2cc(-c3nc([C@H]4CC[C@H](C(=O)O)CC4)n4ncnc(N)c34)[nH]c12 [OSI-027] (partner 0.5 µM) ?
Response line: 0.692
